# Test system: Uromyces phaseoli
# assay overview: Spore germination test
# Assay type: cell-based
# experimental context: UP, 10 ppm, 48 hours
# Method: The test chemical was dissolved or suspended in acetone in an amount such that 0.8 ml of the resulting suspension or solution, mixed with 40 ml water agar produced a water agar solution containing 40, 10, 2.5 and 1 ppm of test chemical. The resulting agar solution, at 50° C., was then divided equally between two sterile petri dishes, each having four separated quadrants, and allowed to solidify. […] Readings were then taken and the percentage of germinated spores calculated. […]
measure: Spore Germination Rating

[[record]]
record_smiles = "O=C(OCc1ccccc1)Oc1ccc(Oc2nsnc(Cl)c2=O)cc1"
reported_value = "3 (60-80)"

[[record]]
record_smiles = "CC(=O)c1ccccc1Oc1nsnc(Cl)c1=O"
reported_value = "0 (0-10)"

[[record]]
record_smiles = "O=c1c(Cl)nsnc1Oc1ccc(Cl)cc1"
reported_value = "0 (0-10)"

[[record]]
record_smiles = "CCOC(=O)c1ccc(Oc2nsnc(Cl)c2=O)cc1"
reported_value = "0 (0-10)"

[[record]]
record_smiles = "CCCCOc1ccc(Oc2nsnc(Cl)c2=O)cc1"
reported_value = "0 (0-10)"

